From: ChEMBL document CHEMBL5291721

AC50 tested on D(3) dopamine receptor (Homo sapiens, UniProt P35462): recorded values; note: assay procedure not described here
Sequence (P35462 whole entry): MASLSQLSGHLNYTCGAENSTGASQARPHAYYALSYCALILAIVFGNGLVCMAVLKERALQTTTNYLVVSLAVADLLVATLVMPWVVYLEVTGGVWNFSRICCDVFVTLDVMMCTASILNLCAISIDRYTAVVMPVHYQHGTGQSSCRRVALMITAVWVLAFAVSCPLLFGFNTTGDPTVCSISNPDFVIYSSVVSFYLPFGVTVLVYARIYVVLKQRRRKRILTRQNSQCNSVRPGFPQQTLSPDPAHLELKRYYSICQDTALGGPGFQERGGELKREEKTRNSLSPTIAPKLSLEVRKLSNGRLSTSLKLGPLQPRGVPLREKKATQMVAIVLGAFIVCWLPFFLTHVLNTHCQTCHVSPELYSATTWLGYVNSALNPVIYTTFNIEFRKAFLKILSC
ASSAY METRIC: AC50

1. CCCSc1nc(N[C@@H]2C[C@H]2c2ccc(F)c(F)c2)c2nnn([C@@H]3C[C@H](OCCO)[C@@H](O)[C@H]3O)c2n1 | 20.5 µM
2. O=C(O)Cc1ccccc1Nc1c(Cl)cccc1Cl | > 3 µM
3. Cc1ccc(C(=O)c2ccc(CC(=O)O)n2C)cc1 | > 30 µM
4. COc1cc(C(C)=O)ccc1OCCCN1CCC(c2noc3cc(F)ccc23)CC1 | 0.0099 µM
5. C=N[C@@H](C(=O)N[C@@H]1C(=O)N2[C@@H]1SC(C)(C)[C@@H]2C(=O)O)c1ccccc1 | > 30 µM
6. CC(C)NC(=N)NC(=N)Nc1ccc(Cl)c(Cl)c1 | > 30 µM
7. Clc1ccc(C(Cn2ccnc2)OCc2csc3c(Cl)cccc23)c(Cl)c1 (stereo unspecified) | 1.78 µM
8. NC(=O)[C@@H]1CC[C@@H]2CN1C(=O)N2OS(=O)(=O)O | > 30 µM
9. CCN(CC)CCCC(C)Nc1c2ccc(Cl)cc2nc2ccc(OC)cc12 (stereo unspecified) | 7.05 µM
10. C[Se]CC[C@H](N)C(=O)O | > 30 µM
11. CC1(CCN2CCCCC2)C(=O)CCc2ccccc21 (stereo unspecified) [NEPINALONE] | > 30 µM
